Measured IC50 by item
# System: PC-3
# assay summary: Antiproliferative activity against PC3 cells
# Assay type: functional, cell-based
# condition label: Homo sapiens
Write the value in µM as a bare number.

Worked examples, 3 molecules total:
smiles input	readout unit	reported result
Cc1ccc(C(=O)N(C)CCc2c[nH]c3ccccc23)cc1	µM	55
CN(CCc1c[nH]c2ccccc12)C(=O)c1cccc(F)c1	µM	98
COc1cccc(C(=O)N(C)CCc2c[nH]c3ccccc23)c1	µM	85

[ask] Write down the reported IC50 (system: PC-3) of CN(CCc1c[nH]c2ccccc12)C(=O)c1ccc(C(C)(C)C)cc1
[reply] 15

[ask] Write down the reported IC50 (system: PC-3) of CN(CCc1c[nH]c2ccccc12)C(=O)c1ccccc1Cl
[reply] 92

###

# Test system: Calu-1
# assay summary: Antiproliferative activity against Calu1 cells
# Assay type: functional, cell-based
# condition label: Homo sapiens
quantity kind: IC50

smiles input	IC50
CN(CCc1c[nH]c2ccccc12)C(=O)c1ccccc1Cl	147 µM
COc1ccccc1C(=O)N(C)CCc1c[nH]c2ccccc12	146 µM

Next:
[ask] Write down the reported IC50 (system: Calu-1) of Cc1cccc(C(=O)N(C)CCc2c[nH]c3ccccc23)c1
[reply] 136 µM

###

Measured pIC50 by item
# Test system: PC-3
# assay summary: Antiproliferative activity against PC3 cells
# Assay type: functional, cell-based
# condition label: Homo sapiens
Please report pIC50 as the negative decimal logarithm of the molar concentration, giving only the number.

Worked examples, 9 compounds total:
smiles input	system under test	quantity kind	reported result
CN(CCc1c[nH]c2ccccc12)C(=O)c1ccc(-c2ccccc2)cc1	PC-3	pIC50	5.21
CN(CCc1c[nH]c2ccccc12)C(=O)c1ccccc1Br	PC-3	pIC50	4.23
CN(CCc1c[nH]c2ccccc12)C(=O)c1cccc(Cl)c1	PC-3	pIC50	4.03
CN(CCc1c[nH]c2ccccc12)C(=O)c1ccccc1	PC-3	pIC50	4.07
CN(CCc1c[nH]c2ccccc12)C(=O)c1ccccc1F	PC-3	pIC50	3.97
CN(CCc1c[nH]c2ccccc12)C(=O)c1ccc(Cl)cc1	PC-3	pIC50	4.33
CN(CCc1c[nH]c2ccccc12)C(=O)c1cccc(Br)c1	PC-3	pIC50	4.18
Cc1ccccc1C(=O)N(C)CCc1c[nH]c2ccccc12	PC-3	pIC50	4.04
COc1ccccc1C(=O)N(C)CCc1c[nH]c2ccccc12	PC-3	pIC50	4.05

Next:
[ask] Give a short answer stating reported pIC50 for CN(CCc1c[nH]c2ccccc12)C(=O)c1ccc(Br)cc1 .
[reply] 4.44
